- System: Cladosporium herbarum
Known MIC of a selection of compounds
Kindly provide the numeric value in µg/mL only, without the unit symbol.

Illustrative cases are given below, each with its answer.
Query :: For the compound O[C@@]1(c2ccc(Cl)cc2)CCCC[C@H]1n1cncn1 (relative stereo) , what MIC is on record?
Result :: 6.25

Query :: Which value of MIC has been reported for O[C@@]1(c2ccccc2Cl)CCCC[C@H]1n1cncn1 (relative stereo) in the records?
Result :: 1.56

Read the next record carefully.
Query :: Which measured MIC value corresponds to O[C@@]1(c2ccc(Cl)cc2)CCCCC[C@H]1n1cncn1 (relative stereo) ?
Result :: 6.25

###

- System: Sphaerotheca fuliginea
- procedure details: Control test to powdery mildew of cucumber (foliar and soil treatment)
- Format: in vivo
- study conditions: Table 9, 0.5 ppm, index 0-10
- Description: (1) Seeds of cucumber (Cultivar: Matsukaze) were sown in a pot of 9 cm in diameter and the pots were kept in a green house until the plant was grown for 2-3 leaf stage. The first leaf was sprayed with, (i) 3 ml each of solutions containing the test compound at the prescribed concetrations and dried by the air (foliar treatment). […]
quantity kind: Powdery mildew, Foliar Treatment, Protective Effect
Please give only the number in your answer, with no unit.

Query :: Please report the recorded Powdery mildew, Foliar Treatment, Protective Effect for O[C@]1(c2ccc(F)cc2)CCCC[C@H]1n1cncn1 (relative stereo) [Trans-isomer of Compound 28, reference compound] .
Result :: 0

Here's the next entry for you.
Query :: Consider the compound O[C@@]1(c2ccc(Cl)cc2)CCCC[C@H]1n1cncn1 (relative stereo) and give its measured Powdery mildew, Foliar Treatment, Protective Effect.
Result :: 10

###

The following are reported MIC results, target or system Diaporthe citri.
The reply should contain only the number, in mg/L.

Query :: Query the reported MIC for Diaporthe citri; item: O[C@@]1(c2ccc(Cl)cc2)CCCCC[C@H]1n1cncn1 (relative stereo)
Result :: 25

Query :: Form field - read-out: MIC; system: Diaporthe citri; submitted item: O[C@@]1(c2ccccc2Cl)CCCC[C@H]1n1cncn1 (relative stereo)
Result :: 3.13

Query :: Which MIC is reported with Diaporthe citri for this entry: O[C@@]1(c2ccc(Cl)cc2)CCCC[C@H]1n1cncn1 (relative stereo) ?
Result :: 12.5

Query :: Which measured MIC belongs to O[C@@]1(c2sc(Cl)c(Cl)c2Cl)CCCC[C@H]1n1cncn1 (relative stereo) , tested on Diaporthe citri?
Result :: 3.13

###

- System: Sphaerotheca fuliginea
- procedure details: Control test to powdery mildew of cucumber (foliar and soil treatment)
- Type: in vivo
- study conditions: second Table 4, 2.0 ppm, index 0-10
- Description: (1) Seeds of cucumber (Cultivar: Matsukaze) were sown in a pot of 9 cm in diameter and the pots were kept in a green house until the plant was grown for 2-3 leaf stage. The first leaf was sprayed with, (i) 3 ml each of solutions containing the test compound at the prescribed concetrations and dried by the air (foliar treatment). […]
quantity kind: Foliar Treatment, Protective Effect

Below, each entry is followed by its recorded Foliar Treatment, Protective Effect result.
Query :: Please report the recorded Foliar Treatment, Protective Effect for O[C@@]1(c2cc(Cl)ccc2Cl)CCCC[C@H]1n1cncn1 (relative stereo) .
Result :: 10

Query :: Item under review: O[C@@]1(c2ccc(Cl)cc2)CCCC[C@H]1n1cncn1 (relative stereo) . Reported Foliar Treatment, Protective Effect?
Result :: 10

Query :: What measured Foliar Treatment, Protective Effect goes with O[C@@]1(c2ccccc2Cl)CCCC[C@H]1n1cncn1 (relative stereo) ?
Result :: 9

Query :: Fill in: Foliar Treatment, Protective Effect of O[C@@]1(c2ccc(Cl)c(Cl)c2)CCCCC[C@H]1n1cncn1 (relative stereo) is ___
Result :: 0

Query :: What value of Foliar Treatment, Protective Effect has been reported for the following compound? O[C@@]1(c2ccc(F)cc2)CCCCC[C@H]1n1cncn1 (relative stereo)
Result :: 9

---
Query :: Which measured Foliar Treatment, Protective Effect value corresponds to O[C@@]1(c2ccc(Cl)cc2)CCCCC[C@H]1n1cncn1 (relative stereo) ?
Result :: 10

###

- Tested on: Botrytis cinerea
- procedure details: Control test of Botrytis rot (gray mold) of cucumber
- Type: in vivo
- study conditions: Table 9, 125 ppm, curative
Gray Mold, Percent Disease Control, Curative Spraying overview
Field note: include the unit after the figure.

Before answering, review these 3 worked examples.
Query :: Given O[C@]1(c2ccc(Cl)cc2)CCCC[C@H]1n1cncn1 (relative stereo) [Trans-isomer of Compound 22, reference compound] , state its recorded Gray Mold, Percent Disease Control, Curative Spraying.
Result :: 2%

Query :: Request the reported Gray Mold, Percent Disease Control, Curative Spraying associated with O[C@@]1(c2ccc(F)cc2)CCCC[C@H]1n1cncn1 (relative stereo)
Result :: 98%

Query :: Endpoint output: Gray Mold, Percent Disease Control, Curative Spraying of O[C@]1(c2ccc(F)cc2)CCCC[C@H]1n1cncn1 (relative stereo) [Trans-isomer of Compound 28, reference compound] . Value?
Result :: 9%

Now look at this one.
Query :: Would you kindly share the measured Gray Mold, Percent Disease Control, Curative Spraying for O[C@@]1(c2ccc(Cl)cc2)CCCC[C@H]1n1cncn1 (relative stereo) ?
Result :: 82%

###

- Tested on: Sphaerotheca fuliginea
- procedure details: Control test to powdery mildew of cucumber (foliar and soil treatment)
- Format: in vivo
- study conditions: Table 9, 0.03 ppm, index 0-10
In this section, each of the compounds is paired with its reported Powdery mildew, Foliar Treatment, Curative Effect.

Query :: Reported Powdery mildew, Foliar Treatment, Curative Effect, compound O[C@]1(c2ccc(Cl)cc2)CCCC[C@H]1n1cncn1 (relative stereo) [Trans-isomer of Compound 22, reference compound] : ____
Result :: 0

Query :: Would you mind telling me what Powdery mildew, Foliar Treatment, Curative Effect value was observed for O[C@]1(c2ccc(F)cc2)CCCC[C@H]1n1cncn1 (relative stereo) [Trans-isomer of Compound 28, reference compound] ?
Result :: 0

Query :: Look at this compound and give its reported Powdery mildew, Foliar Treatment, Curative Effect. O[C@@]1(c2ccc(Cl)cc2)CCCC[C@H]1n1cncn1 (relative stereo)
Result :: 9

---
Query :: Would you mind telling me what Powdery mildew, Foliar Treatment, Curative Effect value was observed for O[C@@]1(c2ccc(F)cc2)CCCC[C@H]1n1cncn1 (relative stereo) ?
Result :: 0

###

- System: Sphaerotheca fuliginea
- procedure details: Control test to powdery mildew of cucumber (foliar and soil treatment)
- Format: in vivo
- study conditions: second Table 4, 2.0 ppm, index 0-10
quantity kind: Foliar Treatment, Protective Effect

Query :: # get_value(readout='Foliar Treatment, Protective Effect', item= O[C@@]1(c2cccc(Cl)c2)CCCC[C@H]1n1cncn1 (relative stereo) [Compound 31] )
Result :: 0

###

# Gray Mold, Percent Disease Control, Protective Spraying values compiled below
- Tested on: Botrytis cinerea
- procedure details: Control test of Botrytis rot (gray mold) of cucumber
- Assay type: in vivo
- study conditions: Table 9, 31.3 ppm, protective
The reply should contain only the number, in %.

# annotated cases, reported Gray Mold, Percent Disease Control, Protective Spraying shown
Query :: Bench note: what Gray Mold, Percent Disease Control, Protective Spraying did O[C@@]1(c2ccc(F)cc2)CCCC[C@H]1n1cncn1 (relative stereo) [Compound 28] show?
Result :: 70

Query :: Reported Gray Mold, Percent Disease Control, Protective Spraying for O[C@]1(c2ccc(F)cc2)CCCC[C@H]1n1cncn1 (relative stereo) [Trans-isomer of Compound 28, reference compound] : what is it?
Result :: 5

Query :: Report Gray Mold, Percent Disease Control, Protective Spraying for O[C@]1(c2ccc(Cl)cc2)CCCC[C@H]1n1cncn1 (relative stereo) [Trans-isomer of Compound 22, reference compound] please.
Result :: 3

Next:
Query :: Endpoint output: Gray Mold, Percent Disease Control, Protective Spraying of O[C@@]1(c2ccc(Cl)cc2)CCCC[C@H]1n1cncn1 (relative stereo) [Compound 22] . Value?
Result :: 62

###

- Test system: Sphaerotheca fuliginea
- procedure details: Control test to powdery mildew of cucumber (foliar and soil treatment)
- Type: in vivo
- study conditions: second Table 4, 0.5 ppm, index 0-10
Recorded Foliar Treatment, Protective Effect for the following compounds
// print number alone

Query :: Requested read-out: Foliar Treatment, Protective Effect. Entry: O[C@@]1(c2ccc(F)cc2)CCCCC[C@H]1n1ccnc1 (relative stereo)
Result :: 0

Now for a further compound.
Query :: Given the entry O[C@@]1(c2ccc(Cl)c(Cl)c2)CCCC[C@H]1n1cncn1 (relative stereo) , report its measured Foliar Treatment, Protective Effect.
Result :: 0
